- assayed.target: soluble human BACE1 catalytic domain (Homo sapiens (Human), UniProt P56817)
- Sequence (P56817 75-416): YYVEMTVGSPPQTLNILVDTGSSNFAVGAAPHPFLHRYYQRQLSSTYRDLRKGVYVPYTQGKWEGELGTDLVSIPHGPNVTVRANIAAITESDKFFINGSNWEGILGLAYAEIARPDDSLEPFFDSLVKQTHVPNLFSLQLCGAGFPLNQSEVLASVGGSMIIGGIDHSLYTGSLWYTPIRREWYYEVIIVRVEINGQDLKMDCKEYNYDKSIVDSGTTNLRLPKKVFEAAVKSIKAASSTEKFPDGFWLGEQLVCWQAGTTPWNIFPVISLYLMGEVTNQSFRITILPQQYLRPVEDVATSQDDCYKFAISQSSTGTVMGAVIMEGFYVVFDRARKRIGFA
- assay.summary: BACE1 HTRF FRET Assay
- test.conditions: read-out: BACE1 inhibition, % Inh. at 10 μM, at 10 μM
property.name: inhibition at 10 µM (%)
Reply with just the number (in %).

Qu. Name the reported inhibition at 10 µM value associated with the compound C[C@@]1(c2cc(N)ccc2F)CS(=O)(=O)[C@](C)(CC(F)(F)F)C(=N)N1 [Entry 36]
Ans. 37

Qu. Next: COc1cccc([C@]2(C)C(=N)N[C@](C)(c3ccc(F)cc3F)CS2(=O)=O)c1 [Example 32f-b]
Ans. 30

Qu. Next: CC1(C)C(N)=N[C@](C)(c2cc(Br)ccc2F)CS1(=O)=O [Example 3-3]
Ans. 56

Qu. Next: C=CC[C@]1(C)C(=N)N[C@](C)(c2cc(N)ccc2F)CS1(=O)=O [Entry 44]
Ans. 38

Qu. Next: C[C@@]1(C2CCC2)C(=N)N[C@](C)(c2cc(N)ccc2F)CS1(=O)=O [Entry 40]
Ans. 20

Qu. Next: C[C@@]1(c2ccccn2)C(=N)N[C@](C)(c2cc(N)ccc2F)CS1(=O)=O [Entry 77]
Ans. 25

Qu. Next: C[C@@]1(c2cccc(F)c2)C(=N)N[C@](C)(c2cc(N)ccc2F)CS1(=O)=O [Entry 61]
Ans. 27

Qu. Next: CC1(C)C(=N)N[C@](C)(c2cc([N+](=O)[O-])ccc2F)CS1(=O)=O [Example 2-1]
Ans. 45

Qu. Next: Cc1nc2ccc(CC3(C)C(=N)N[C@](C)(c4cc(F)ccc4F)CS3(=O)=O)cc2s1 (mixture of isomers) [32b-a and 32b-b]
Ans. 11

Qu. Next: C[C@@]1(c2cccc(F)c2)C(=N)N[C@](C)(c2sc(Br)cc2F)CS1(=O)=O [Entry 88]
Ans. 34

Qu. Next: C[C@@]1(c2cccc(C(F)(F)F)c2)C(=N)N[C@](C)(c2cc(N)ccc2F)CS1(=O)=O [Entry 69]
Ans. 17

Qu. Next: C[C@@]1(C2CC2)C(=N)N[C@](C)(c2cc([N+](=O)[O-])ccc2F)CS1(=O)=O [Entry 30]
Ans. 30

Qu. Next: C[C@@]1(c2ccccn2)C(=N)N[C@](C)(c2sc(Br)cc2F)CS1(=O)=O [Entry 86]
Ans. 44

Qu. Next: CC1(C)C(=N)N[C@](C)(c2c(F)c(F)cc([N+](=O)[O-])c2F)CS1(=O)=O [Entry 15]
Ans. 45

Qu. Next: CC1(c2nc(C#Cc3ccc(F)cc3)ccc2F)CS(=O)(=O)C(C)(C)C(=N)N1 (centres unmarked) [Example 31a]
Ans. 41

Qu. Next: COc1cccc([C@]2(C)C(=N)N[C@](C)(c3cc(F)ccc3F)CS2(=O)=O)c1 [Example 32e-b]
Ans. 22

Qu. Next: C[C@@]1(c2cccc(OCc3ccccc3)c2)C(=N)N[C@](C)(c2cc(F)ccc2F)CS1(=O)=O [Example 34d-b]
Ans. 16
